Source: patent US8415357B2

Let's look at some molecules and their measured IC50.
system: Jurkat cells; assay: Adaptation to G2 cell cycle arrest (G1 increment) in X-ray pre-arrested Jurkat cells, flow cytometry; format: cell-based, human; conditions: Homo sapiens, Jurkat, 24 h, Table 2; concentration causing half-maximal increase of % cells in G1 phase (G1 increment); Jurkat pre-arrested by 10 Gy X-ray, 24 hours with compound
result type: IC50 (µM)

molecule: CC1=C(C)C(=O)N(Nc2cc(CN3CCN(C(=O)c4ccccc4)CC3)c3ccc(Br)cc3n2)C1=O [Compound S01699]
numeric readout: 0.625

molecule: CC1=C(CCC(C)C)C(=O)N(Nc2ccc(C(F)(F)F)c(Cl)n2)C1=O [Compound S01554]
numeric readout: 0.12

molecule: CC1=C(C)C(=O)N(Nc2cc(CN3CCC(NC(=O)OC(C)(C)C)C3)c3ccc(Br)cc3n2)C1=O (stereo not drawn) [Compound S01864]
numeric readout: 0.468

molecule: CC1=C(C)C(=O)N(Nc2cccc(-c3cccc(C(F)(F)F)c3)n2)C1=O [Compound S01691]
numeric readout: 0.625

molecule: CC1=C(CO)C(=O)N(Nc2ccc(C(F)(F)F)c(Cl)n2)C1=O [Compound S01470]
numeric readout: 0.2

molecule: CC1=C(C)C(=O)N(Nc2cc(CN3CCN(C4CCN(C(=O)OC(C)(C)C)CC4)CC3)c3ccc(Br)cc3n2)C1=O [Compound S01928]
numeric readout: 0.938

molecule: CNC(=O)CCC1=C(C)C(=O)N(Nc2ccc(C(F)(F)F)c(Cl)n2)C1=O [Compound S01883]
numeric readout: 0.234

molecule: CC1=C(C)C(=O)N(Nc2ccc(C(F)(F)F)c(-c3ccc(F)c(Cl)c3)n2)C1=O [Compound S01313]
numeric readout: 0.3

molecule: CC1=C(C)C(=O)N(Nc2cc(CO)c3ccc(Br)cc3n2)C1=O [Compound S01037]
numeric readout: 0.625

molecule: CC1=C(C)C(=O)N(Nc2ccc(C(F)(F)F)c(Br)n2)C1=O [Compound S00994]
numeric readout: 0.2

molecule: CC(=O)N(c1ccc(C(F)(F)F)c(Cl)n1)N1C(=O)C(C)=C(C)C1=O [Compound S01473]
numeric readout: 0.2

molecule: CC1=C(C)C(=O)N(Nc2cc(Cl)c3cc(C)ccc3n2)C1=O [Compound S00935]
numeric readout: 0.625

molecule: CC1=C(C)C(=O)N(Nc2cc(C(F)(F)F)cc(Cl)n2)C1=O [Compound S01737]
numeric readout: 0.312

molecule: CC(=O)OCc1cc(NN2C(=O)C(C)=C(C)C2=O)nc2cc(Br)ccc12 [Compound S01047]
numeric readout: 0.625

molecule: CON(C)C(=O)CCC1=C(C)C(=O)N(Nc2ccc(C(F)(F)F)c(Cl)n2)C1=O [Compound S01796]
numeric readout: 0.078

molecule: CC1=C(C)C(=O)N(Nc2ccc(C(F)(F)F)c(-c3ccccc3)n2)C1=O [Compound S01266]
numeric readout: 0.2

molecule: CC1=C(C)C(=O)N(Nc2cc(Cl)c3ccc4ccccc4c3n2)C1=O [Compound S01207]
numeric readout: 0.625

molecule: CCOC(=O)CCC1=C(C)C(=O)N(Nc2ccc(C(F)(F)F)c(Cl)n2)C1=O [Compound S01861]
numeric readout: 0.05

molecule: CC1=C(C)C(=O)N(Nc2cc(CNC3CCN(C(=O)OC(C)(C)C)CC3)c3ccc(Br)cc3n2)C1=O [Compound S01862]
numeric readout: 0.937

molecule: COc1cccc(C(=O)N2CCN(Cc3cc(NN4C(=O)C(C)=C(C)C4=O)nc4cc(Br)ccc34)CC2)c1 [Compound S01925]
numeric readout: 0.156

molecule: CC(=O)N(c1ccc(C(F)(F)F)c(Cl)n1)N1C(=O)C(C)=C(CO)C1=O [Compound S01820]
numeric readout: 0.625

molecule: CCN(CC)C(=O)CCC1=C(C)C(=O)N(Nc2ccc(C(F)(F)F)c(Cl)n2)C1=O [Compound S01711]
numeric readout: 0.156

molecule: CC1=C(C)C(=O)N(Nc2cc(CN3CCN(C(=O)c4ccc(C)cc4C)CC3)c3ccc(Br)cc3n2)C1=O [Compound S01800]
numeric readout: 0.625

molecule: CC1=C(C)C(=O)N(Nc2cc(CN3CCN(S(=O)(=O)c4ccccc4)CC3)c3ccc(Br)cc3n2)C1=O [Compound S01822]
numeric readout: 0.625
